Every entry's value here was drawn from patent US9376436B2.

- study.target: hNaV1.7 (Homo sapiens)
- Construct: expressed in transfected cells; host or cells: HEK293
- test: QPatch NaV1.7 assay (whole-cell patch clamp, QPatch16x)
- Assay type: cell-based
- reported.conditions: holding voltage −90 mV (most channels closed), HEK293-hNaV1.7 cells, read-out: QP Nav1.7 −90 mV pIC50 (converted)
- Protocol: The compounds of the invention were tested in a QPatch NaV1.7 assay. HEK293-hNaV1.7 cells were grown in DMEM-F12+10% FBS culture media at 37° C. At a confluency of 50-70% cells were dissociated from culture flasks & triturated to ensure unicellular cell suspension; cell density was measured & adjusted to 2-3×10^6 cells/ml. Recordings were obtained using QPatch16x. The external solution was (in mM): NaCl, 128; KCl, 5; MgCl2, 2; CaCl2, 2; Glucose, 30; HEPES, 15; pH 7.3, 305-315 mOsm. […]
Structures can show the parent of a compound that is named as a salt.
endpoint.label: IC50 (µM)

INSERT INTO results (compound, study_target, value_observed) VALUES
  ('Cl.[2H]C([2H])(C)Oc1ccc(F)c(-c2ccnc([C@H]3CC[C@@]4(CCN(C)C4=O)N3)c2)c1', 'hNaV1.7 (Homo sapiens)', 50.1),
  ('CC1(C)C[C@@]2(CC[C@H](c3cc(-c4ccc(C(F)(F)F)cc4)ccn3)N2)C(=O)N1 [Example 45, hydrochloride]', 'hNaV1.7 (Homo sapiens)', 39.8),
  ('COc1ccc(F)cc1-c1ccnc([C@H]2CC[C@@]3(CCN(C)C3=O)N2)c1 [Example 10, hydrochloride]', 'hNaV1.7 (Homo sapiens)', 3980);

(I) CCOc1ccc(F)c(-c2cc(C)nc([C@@H]3CC[C@@]4(CCNC4=O)N3)c2)c1 [Example 105, hydrochloride]
(II) CCOc1ccc(-c2ccnc([C@H]3CC[C@@]4(CCN(C)C4=O)N3)c2)cc1 [Example 76, hydrochloride]
INPUT: Endpoint returns the identifier whose IC50 is numerically larger, either I or II . // return label of chosen record
OUTPUT: II

(A) CCOc1cc(F)ccc1-c1ccnc([C@H]2CC[C@@]3(CCN(C)C3=O)N2)c1 [Example 169, hydrochloride]
(B) Cc1cc(-c2cc(OC(C)C)ccc2F)cc([C@H]2CC[C@@]3(CCN(C)C3=O)N2)n1 [Example 198, hydrochloride]
INPUT: Which value of IC50 is greater, the one for A or the one for B ? Your answer should be the label attached to the chosen record.
OUTPUT: A
(A: 126 µM, B: 63.1 µM)

(P) CCOc1ccc(F)c(-c2ccnc([C@H]3CC[C@@]4(CCCNC4=O)N3)c2)c1 [Example 108, hydrochloride]
(Q) CCOc1ccc(F)c(-c2cc([C@@H]3CC[C@@]4(CCN(C)C4=O)N3)nc(C)c2C)c1 [Example 142, hydrochloride]
(R) CN1CC[C@@]2(CC[C@H](c3cc(-c4cc(-c5cnn(C)c5)ccc4F)ccn3)N2)C1=O [Example 191, hydrochloride]
(S) CN1CC[C@@]2(CC[C@@H](c3cc(-c4ccc(C(F)(F)F)cc4)c(F)cn3)N2)C1=O [Example 59, hydrochloride]
INPUT: Rank entries according to their IC50, from the largest number down. // list labels; follow requested order
OUTPUT: R, S, Q, P
(R: 398 µM, S: 100 µM, Q: 15.8 µM, P: 1.26 µM)

(P) CCOc1ccc(F)c(-c2cc(C)nc([C@H]3CC[C@]4(CCN(C)C4=O)N3)c2)c1 [Example 121, hydrochloride]
(Q) Cc1c(-c2ccc(C(F)(F)F)cc2)ccnc1[C@@H]1CC[C@]2(CCN(C)C2=O)N1 [Example 15, hydrochloride]
(R) CCOc1ccc(-c2ccnc([C@H]3CC[C@@]4(CCN(C)C4=O)N3)c2)cc1C [Example 167, hydrochloride]
INPUT: # desc sort on IC50 across 3 compounds # output: labels, in the requested order
OUTPUT: R, Q, P

====

- study.target: hNaV1.7 (Homo sapiens, UniProt Q15858)
- Construct: expressed in transfected cells; host or cells: HEK293
- Sequence (Q15858 whole entry): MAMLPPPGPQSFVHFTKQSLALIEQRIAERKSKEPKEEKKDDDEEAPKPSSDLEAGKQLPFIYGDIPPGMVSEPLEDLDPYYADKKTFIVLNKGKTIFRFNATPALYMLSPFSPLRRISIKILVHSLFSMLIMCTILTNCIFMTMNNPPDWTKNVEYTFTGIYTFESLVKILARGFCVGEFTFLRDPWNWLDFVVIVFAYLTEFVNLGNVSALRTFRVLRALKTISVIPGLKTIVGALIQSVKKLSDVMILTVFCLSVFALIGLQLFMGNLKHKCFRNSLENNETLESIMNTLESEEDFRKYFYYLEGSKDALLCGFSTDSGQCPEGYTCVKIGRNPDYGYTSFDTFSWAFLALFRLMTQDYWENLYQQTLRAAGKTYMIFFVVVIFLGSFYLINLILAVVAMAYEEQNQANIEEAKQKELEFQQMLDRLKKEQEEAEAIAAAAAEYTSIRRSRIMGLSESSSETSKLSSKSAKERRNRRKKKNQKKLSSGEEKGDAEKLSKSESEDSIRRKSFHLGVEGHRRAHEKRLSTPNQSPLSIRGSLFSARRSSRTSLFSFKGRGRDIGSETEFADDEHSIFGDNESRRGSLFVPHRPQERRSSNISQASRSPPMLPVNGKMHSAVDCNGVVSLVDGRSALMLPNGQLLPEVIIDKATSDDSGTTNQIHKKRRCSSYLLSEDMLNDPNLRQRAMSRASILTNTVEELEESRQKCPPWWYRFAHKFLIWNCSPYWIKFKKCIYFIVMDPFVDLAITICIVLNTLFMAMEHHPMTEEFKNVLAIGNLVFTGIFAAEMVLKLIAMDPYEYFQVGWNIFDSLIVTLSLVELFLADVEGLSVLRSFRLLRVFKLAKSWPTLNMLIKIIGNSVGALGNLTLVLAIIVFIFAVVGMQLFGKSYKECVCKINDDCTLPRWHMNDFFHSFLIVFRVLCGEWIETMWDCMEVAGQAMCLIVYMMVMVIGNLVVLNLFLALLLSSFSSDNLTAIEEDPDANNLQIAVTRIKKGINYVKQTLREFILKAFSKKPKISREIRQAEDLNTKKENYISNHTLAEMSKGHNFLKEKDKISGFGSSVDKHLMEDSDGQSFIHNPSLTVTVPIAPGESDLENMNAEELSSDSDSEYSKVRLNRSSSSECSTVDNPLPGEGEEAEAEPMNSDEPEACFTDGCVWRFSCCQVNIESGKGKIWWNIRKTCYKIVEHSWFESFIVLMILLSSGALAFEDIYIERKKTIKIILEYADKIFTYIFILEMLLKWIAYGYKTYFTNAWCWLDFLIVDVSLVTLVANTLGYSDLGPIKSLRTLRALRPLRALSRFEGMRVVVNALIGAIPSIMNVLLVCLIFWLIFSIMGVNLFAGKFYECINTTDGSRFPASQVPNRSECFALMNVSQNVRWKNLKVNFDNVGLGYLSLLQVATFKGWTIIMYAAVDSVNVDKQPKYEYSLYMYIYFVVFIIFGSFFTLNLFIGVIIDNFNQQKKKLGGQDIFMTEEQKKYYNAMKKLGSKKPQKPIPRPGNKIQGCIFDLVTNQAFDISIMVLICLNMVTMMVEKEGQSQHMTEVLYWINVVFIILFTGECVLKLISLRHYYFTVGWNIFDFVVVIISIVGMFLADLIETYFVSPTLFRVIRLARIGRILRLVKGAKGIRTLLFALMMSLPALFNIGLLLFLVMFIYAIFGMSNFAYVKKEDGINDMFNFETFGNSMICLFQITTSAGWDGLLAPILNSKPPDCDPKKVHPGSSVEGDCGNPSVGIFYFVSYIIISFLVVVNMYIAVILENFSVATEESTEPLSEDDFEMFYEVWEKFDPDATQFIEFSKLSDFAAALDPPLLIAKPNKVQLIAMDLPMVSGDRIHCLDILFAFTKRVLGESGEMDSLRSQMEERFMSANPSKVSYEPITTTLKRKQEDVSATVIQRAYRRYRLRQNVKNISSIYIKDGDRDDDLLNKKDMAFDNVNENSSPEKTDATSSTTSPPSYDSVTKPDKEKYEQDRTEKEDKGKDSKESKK
- test: QPatch NaV1.7 assay (whole-cell patch clamp, QPatch16x)
- Assay type: cell-based
- reported.conditions: holding voltage V1/2 SSI (half of channels inactivated), HEK293-hNaV1.7 cells, read-out: QP Nav1.7 SSI vhalf pIC50 (converted)
Counter-ions that a name gives are not always drawn.
endpoint.label: IC50 (µM)

INSERT INTO measurements (compound, study_target, endpoint_label, value_observed) VALUES
  ('CCOc1ccc(F)c(-c2cc(C)nc([C@@H]3CC[C@@]4(CCN(C)C4=O)N3)c2)c1 [Example 92, hydrochloride]', 'hNaV1.7 (Homo sapiens, UniProt Q15858)', 'IC50', 2.51);

(1) CN1CC[C@@]2(CC[C@H](c3cc(-c4cc(OC(F)(F)F)ccc4F)ccn3)N2)C1=O [Example 176, hydrochloride]
(2) Cc1cc(-c2ccc(OC(C)C)cc2)cc([C@H]2CC[C@@]3(CCN(C)C3=O)N2)n1 [Example 85, hydrochloride]
(3) Cc1cc(-c2ccc(C(F)(F)F)cc2)cc([C@@H]2CC[C@@]3(CCCNC3=O)N2)n1 [Example 101, hydrochloride]
(4) Cc1cc(-c2cc3c(cc2F)CCO3)cc([C@@H]2CC[C@]3(CCN(C)C3=O)N2)n1 [Example 208, hydrochloride]
(5) Cc1cnc([C@H]2CC[C@@]3(CCN(C)C3=O)N2)cc1-c1ccc(C(F)(F)F)cc1 [Example 41, hydrochloride]
INPUT: Rank ascending by IC50. Dear reader, please state the labels in the requested order.
OUTPUT: 2, 5, 3, 1, 4
(2: 0.316 µM, 5: 2 µM, 3: 10 µM, 1: 20 µM, 4: 100 µM)

(1) COc1cnc([C@H]2CC[C@@]3(CCN(C)C3=O)N2)cc1-c1ccc(C(F)(F)F)cc1 [Example 155, hydrochloride]
(2) CCOc1ccc(F)c(-c2cc([C@@H]3CC[C@@]4(CCN(C)C4=O)N3)ncc2C)c1 [Example 138, hydrochloride]
INPUT: Please choose the item with the lower IC50 value from this pair: 1 and 2 State your choice using its label.
OUTPUT: 1

====

- study.target: hNaV1.7 (Homo sapiens)
- Construct: expressed in transfected cells; host or cells: HEK293
- test: QPatch NaV1.7 assay (whole-cell patch clamp, QPatch16x)
- Assay type: cell-based
- reported.conditions: holding voltage V1/2 SSI (half of channels inactivated), HEK293-hNaV1.7 cells, read-out: QP Nav1.7 SSI vhalf pIC50 (converted)
Counter-ions that a name gives are not always drawn.
endpoint.label: IC50 (µM)

INSERT INTO assay_data (compound, value_observed) VALUES
  ('CN1CCC[C@]2(CC[C@@H](c3cc(-c4ccc(C(F)(F)F)cc4)ccn3)N2)C1=O [Example 69, hydrochloride]', 7.94),
  ('CCOc1ccc(F)c(-c2ccnc([C@H]3CC[C@]4(CCCNC4=O)N3)c2)c1 [Example 107, hydrochloride]', 0.2),
  ('O=C1NCC[C@]12CC[C@@H](c1cc(-c3cccc(OC(F)(F)F)c3)ccn1)N2 [Example 116, hydrochloride]', 10),
  ('CN1CC[C@@]2(CC[C@H](c3cc(-c4ccc5c(c4)OC(F)(F)O5)ccn3)N2)C1=O [Example 172, hydrochloride]', 31.6),
  ('CN1CC[C@@]2(CC[C@H](c3cc(-c4cc(-n5cccn5)ccc4F)ccn3)N2)C1=O [Example 184, hydrochloride]', 10);

(P) CN1CC[C@@]2(CC[C@H](c3cc(-c4ccc(OC(F)F)cc4F)ccn3)N2)C1=O [Example 156, hydrochloride]
(Q) CCOc1ccc(F)c(-c2cc(C)nc([C@H]3CC[C@]4(CCNC4=O)N3)c2)c1 [Example 103, hydrochloride]
INPUT: Lower value of IC50 belongs to which: P or Q ? // respond with label for picked entry
OUTPUT: Q
(Q: 0.126 µM, P: 20 µM)

(1) CCOc1ccc(F)c(-c2cc(C(C)C)nc([C@@H]3CC[C@@]4(CCN(C)C4=O)N3)c2)c1 [Example 236, hydrochloride]
(2) O=C1NCC[C@]12CC[C@H](c1cc(-c3ccc(C(F)(F)F)cc3)ccn1)N2 [Example 115, hydrochloride]
INPUT: # return whichever of 1 and 2 has the smaller IC50 Refer to your chosen entry by its label in the reply.
OUTPUT: 1
(1: 0.631 µM, 2: 2.51 µM)

(a) CCOc1ccc(F)c(-c2cc(OC)nc([C@H]3CC[C@@]4(CCN(C)C4=O)N3)c2)c1 [Example 250, hydrochloride]
(b) COc1cc(C(F)(F)F)ccc1-c1cc(C)nc([C@H]2CC[C@]3(CCN(C)C3=O)N2)c1 [Example 90, hydrochloride]
INPUT: Recorded IC50 values differ for a and b ; which one is higher? Identify your pick by its label.
OUTPUT: a
